# Test Method Notes: Acute toxicity in Kunming mouse assessed as survival rate at 40 ug/kg, ip administered once daily for 14 days relative to control
# Type: organism-based
# Experimental Setup: in vivo, 0.04 mg/kg, time 14 day, read-out: Activity
Residues, ends and D or L forms follow the SMILES beside them.
Measurement Type: survival at 336 h (%)
Use % as the unit, but write only the number.

## Input Recorded survival at 336 h for CC(C)C[C@H](NC(=O)CNC(=O)[C@H](Cc1ccccc1)NC(=O)[C@H](CCCNC(=N)N)NC(=O)[C@H](CCCNC(=N)N)NC(=O)CNC(=O)[C@H](Cc1cnc[nH]1)NC(=O)[C@H](CCCNC(=N)N)NC(=O)CNC(=O)[C@@H](NC(=O)[C@H](C)NC(=O)[C@@H](N)CO)C(C)C)C(=O)N[C@@H](CCCNC(=N)N)C(=O)N[C@@H](CCCCN)C(=O)N[C@@H](Cc1cnc[nH]1)C(=O)N[C@@H](CCCNC(=N)N)C(=O)N[C@@H](CCCCN)C(=O)N[C@@H](Cc1cnc[nH]1)C(=O)O (H-SAVGRHGRRFGLRKHRKH-OH) , please?
## Output 10

* * *

# Test Method Notes: Acute toxicity in Kunming mouse assessed as survival rate at 160 ug/kg, ip administered once daily for 14 days relative to control
# Assay type: organism-based
# Experimental Setup: in vivo, 0.16 mg/kg, time 14 day, read-out: Activity
Residues, ends and D or L forms follow the SMILES beside them.
Measurement Type: survival at 336 h
Lab note: write values as number then unit, every time.

## Input Recorded survival at 336 h for CC(C)C[C@H](NC(=O)CNC(=O)[C@H](Cc1ccccc1)NC(=O)[C@H](CCCNC(=N)N)NC(=O)[C@H](CCCNC(=N)N)NC(=O)CNC(=O)[C@H](Cc1cnc[nH]1)NC(=O)[C@H](CCCNC(=N)N)NC(=O)CNC(=O)[C@@H](NC(=O)[C@H](C)NC(=O)[C@@H](N)CO)C(C)C)C(=O)N[C@@H](CCCNC(=N)N)C(=O)N[C@@H](CCCCN)C(=O)N[C@@H](Cc1cnc[nH]1)C(=O)N[C@@H](CCCNC(=N)N)C(=O)N[C@@H](CCCCN)C(=O)N[C@@H](Cc1cnc[nH]1)C(=O)O (H-SAVGRHGRRFGLRKHRKH-OH) , please?
## Output 75%
